B1: library; numbered along this chain (parent)
chain: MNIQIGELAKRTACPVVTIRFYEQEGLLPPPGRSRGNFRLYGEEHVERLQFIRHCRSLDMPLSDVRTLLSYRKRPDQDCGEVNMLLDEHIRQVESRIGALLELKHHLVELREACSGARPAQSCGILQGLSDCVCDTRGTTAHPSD

Variants of: B1
method-summary: sfGFP reporter fluorescence (15 h) (µM FITC); higher = higher leak
test-parameters: library round: Round 1; ligand: none
Recorded sfGFP reporter fluorescence by entry
Please respond with just the number, no unit label.

Completed entries (count: 5):
>>> print(df.to_string())
       variant_key  data_value
0  M60L D64K D131C       0.344
1        I3G K104V      0.0618
2        D64K N83F      0.0616
3       R33M Q127T      0.0635
4   M60F P61N D64K       0.624

According to the records, this variant K104V G128M D135A displays sfGFP reporter fluorescence of 0.103

Entry E43C K104V ; sfGFP reporter fluorescence = 0.065

Kindly note the recorded sfGFP reporter fluorescence for D64T Q127G , which is 0.0611

Kindly note the recorded sfGFP reporter fluorescence for L110I R111A , which is 0.0628

Record P61N D64K D131C , field sfGFP reporter fluorescence: 0.119

Consider I90L D131C . Its measured sfGFP reporter fluorescence is 0.0627

Documented sfGFP reporter fluorescence of D135A P143W : 0.0683

Record summary for D64K C79L : reported sfGFP reporter fluorescence = 0.0594

Lab note: measured sfGFP reporter fluorescence of L126I D135A was 0.0632

Measured sfGFP reporter fluorescence of M60L D64K L107C E109L G128I D131T : 2.84

Briefly, sfGFP reporter fluorescence measured for D131H D135A : 0.065

The variant listed as D64K I97A has a reported sfGFP reporter fluorescence of 0.209

Just so you know, measured sfGFP reporter fluorescence for N83T L85M came out at 0.0622

Given item D64T D135A , the value recorded as its sfGFP reporter fluorescence is 0.13

Query R96A K104V yields sfGFP reporter fluorescence of 0.068

Recorded result, G128A L129M , sfGFP reporter fluorescence: 0.0617

sfGFP reporter fluorescence reading for L107C R111L G128M : 0.333
